# target_desc: OAT3 (Homo sapiens)
# Sequence (Q8TCC7 whole entry): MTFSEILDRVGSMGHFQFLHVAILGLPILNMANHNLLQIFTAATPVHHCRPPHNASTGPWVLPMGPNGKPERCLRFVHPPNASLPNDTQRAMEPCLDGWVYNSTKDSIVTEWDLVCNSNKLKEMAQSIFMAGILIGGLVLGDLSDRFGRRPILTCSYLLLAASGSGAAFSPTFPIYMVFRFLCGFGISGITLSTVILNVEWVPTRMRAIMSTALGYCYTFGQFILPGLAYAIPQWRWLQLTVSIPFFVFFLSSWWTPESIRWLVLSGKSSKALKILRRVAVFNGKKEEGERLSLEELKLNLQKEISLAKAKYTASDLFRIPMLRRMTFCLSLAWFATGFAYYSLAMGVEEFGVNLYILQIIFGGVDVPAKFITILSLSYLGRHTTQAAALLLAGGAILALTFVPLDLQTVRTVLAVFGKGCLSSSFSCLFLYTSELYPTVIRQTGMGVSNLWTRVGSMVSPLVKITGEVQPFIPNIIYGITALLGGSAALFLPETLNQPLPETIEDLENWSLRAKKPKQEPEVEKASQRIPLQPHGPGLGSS
# run_description: Inhibition of OAT-mediated fluorescein uptake in ciPTEC-OAT3
I'd appreciate it if you could supply pIC50 values for the items below.
Would you please state pIC50, meaning minus log10 of the concentration in mol/L, as a bare number?

Need pIC50, item CN/C(=N/CCSCc1nc[nH]c1C)NC#N [Cimetidine, cimetidine] 3.67

Need pIC50, item Cc1cn([C@H]2C[C@H](N=[N+]=[N-])[C@@H](CO)O2)c(=O)[nH]c1=O [Zidovudine, zidovudine] 4.68

Need pIC50, item Nc1ccc(C(=O)NCC(=O)O)cc1 [Para-aminohippuric acid, para-aminohippuric acid] 3.82
